Please provide measured pIC50 for the entries that follow.
- system: Recombinant human HSD17B13 enzyme (Homo sapiens)
- Sequence (Q7Z5P4 20-300): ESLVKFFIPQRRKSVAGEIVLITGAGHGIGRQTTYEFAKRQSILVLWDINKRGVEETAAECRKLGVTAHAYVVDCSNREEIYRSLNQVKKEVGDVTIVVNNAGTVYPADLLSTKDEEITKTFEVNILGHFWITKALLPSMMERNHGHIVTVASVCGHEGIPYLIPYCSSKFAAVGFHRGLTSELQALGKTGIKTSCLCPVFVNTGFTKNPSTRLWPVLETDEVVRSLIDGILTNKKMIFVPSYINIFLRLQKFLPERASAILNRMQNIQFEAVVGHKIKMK
- assay_notes: HSD17b13 NAD(P)H-Glo biochemical assay
- experimental_setup: 50 μM estradiol, 1 mM NAD+, 37° C. for 3 hours; read-out: HSD17β13 IC50
pIC50: −log10 of the molar value.

Examples from the recorded data:
molecule: Cn1nc(-c2cc(C(F)(F)F)c(F)c(O)c2F)c2cnc(N3CCOCC3Cc3cccnc3)nc21 (stereo not shown)
result: ≥ 7.00

molecule: Cn1nc(-c2cc(C(F)(F)F)c(F)c(O)c2F)c2cnc(N3CCC(O)(CN4CCOCC4)CC3)nc21
result: 6.00 to 7.00

molecule: Cn1nc(-c2cc(C(F)(F)F)c(F)c(O)c2F)c2cnc(N3CCOCC3CC3CCCCC3)nc21 (stereo not shown)
result: ≥ 7.00

molecule: CNc1nn(-c2cc(C(F)(F)F)c(F)c(O)c2F)c2ccc(N3CCN(S(C)(=O)=O)C[C@H]3Cc3ccccc3)cc12
result: ≥ 7.00

molecule: Cc1cccc(C[C@H]2CN(c3ncc4c(-c5cc(C(F)(F)F)c(F)c(O)c5F)nn(C)c4n3)CCO2)c1
result: ≥ 7.00

Working through the 3 molecules below one at a time, give pIC50 for each.
1. Cn1nc(-c2cc(C(F)(F)F)c(F)c(O)c2F)c2cnc(N3CCOC[C@H]3Cc3ccc(F)cc3)nc21
2. CN1CCN(c2ncc3c(-c4cc(C(F)(F)F)c(F)c(O)c4F)nn(C)c3n2)[C@H](Cc2ccccc2)C1
3. Oc1c(F)cc2nnn(-c3ccc(N4CCCC(Cc5ccccc5)CC4)cc3)c2c1F (stereo not shown)

-- reply
1. ≥ 7.00
2. ≥ 7.00
3. ≥ 7.00

Below are 2 molecules. Give each one its pIC50.
1. Cn1nc(-c2cc(C(F)(F)F)c(F)c(O)c2F)c2cnc(N3CCN(S(C)(=O)=O)C(CC4CCC4)C3)nc21 (stereo not shown)
2. CN(C)C(=O)N1CCN(c2ncc3c(-c4cc(C(F)(F)F)c(F)c(O)c4F)nn(C)c3n2)C(CC2CC2)C1 (stereo not shown)

-- reply
1: ≥ 7.00; 2: ≥ 7.00

Look up pIC50 for the entries below, preserving their order.
1. Cc1nn(-c2cc(C(F)(F)F)c(F)c(O)c2F)c2cnc(N3CCN(S(C)(=O)=O)C[C@H]3Cc3ccccc3)nc12
2. Cc1nn(-c2cc(O)cc(C(F)(F)F)c2)c2ccc(N3CCN(S(C)(=O)=O)C[C@H]3Cc3ccccc3)cc12
3. Cn1nc(-c2cc(C(F)(F)F)c(F)c(O)c2F)c2cnc(N3CCN(C(N)=O)CC3CC3CC3)nc21 (stereo not shown)
4. Cn1nc(-c2cc(C(F)(F)F)c(F)c(O)c2F)c2cnc(N3CCC[C@H]3Cc3ccccc3)nc21
5. CS(=O)(=O)N1CCN(c2ccc(-n3nnc4cc(F)c(O)c(F)c43)cc2)C[C@@H]1Cc1ccccc1
6. Cn1nc(-c2cccc(O)c2)c2cnc(N3CCN(S(C)(=O)=O)C[C@H]3Cc3ccccc3)nc21
7. Cn1nc(-c2cc(C(F)(F)F)c(F)c(O)c2F)c2cnc(N3CCN(S(C)(=O)=O)C(CC4CC4)C3)nc21 (stereo not shown)

-- reply
1: ≥ 7.00; 2: 6.00 to 7.00; 3: ≥ 7.00; 4: ≥ 7.00; 5: ≥ 7.00; 6: 4.52 to 6.00; 7: ≥ 7.00

For every listed record, write down its pIC50.
1. Cn1nc(-c2cc(C(F)(F)F)c(F)c(O)c2F)c2cnc(N3CCCCC3Cc3ccccc3)nc21 (stereo not shown)
2. Cn1nc(-c2cc(C(F)(F)F)c(F)c(O)c2F)c2cnc(N3CCO[C@@H](Cc4ccccc4)C3)nc21
3. Oc1c(F)cc2nnn(-c3ccc(N4CCO[C@@H](Cc5ccccc5)C4)cc3)c2c1F
4. COCC(=O)N1CCN(c2ncc3c(-c4cc(C(F)(F)F)c(F)c(O)c4F)nn(C)c3n2)[C@H](Cc2ccccc2)C1
5. CN(C)c1nn(-c2cc(C(F)(F)F)c(F)c(O)c2F)c2ccc(N3CCN(S(C)(=O)=O)C[C@H]3Cc3ccccc3)cc12

-- reply
["≥ 7.00", "≥ 7.00", "6.00 to 7.00", "≥ 7.00", "≥ 7.00"]
